B1: tRNA (parent)
chain: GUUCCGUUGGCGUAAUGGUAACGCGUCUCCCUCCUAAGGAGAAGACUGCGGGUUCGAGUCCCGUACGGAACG

Variants of: B1
Experiment: yeast fitness relative to wild type (ratio to wild type); higher = fitter; tRNA-Arg(CCU), competitive growth, 37 C, YPD
This sample holds only a part of the variants without activity.
This listing pairs variants with measured yeast fitness.

[
  {
    "seq": "GUUCCGUUGCCGUAAUGGUAAAGCGUCUCCCUCCUAAGGAGAAGACUGCGGGUUCGAGUGUCAUACGGAACG [G10C C22A C60G C61U G63A]",
    "yeast fitness": "≤ 0.5"
  },
  {
    "seq": "GUUCCGUUGGCGUAAUGGUAACGCGUCUCCUUCCUAAGGAUAAGACUGCGGGUUCAAGUCCCGUACGGAACG [C31U G41U G56A]",
    "yeast fitness": 0.686
  },
  {
    "seq": "GUUCCGUUGGCGUAAUGGUAACGCGUCUCCGUCCUAAGGAGAAGAGUGCAGGUUCGAGUCCCGUACGGAACG [C31G C46G G50A]",
    "yeast fitness": 0.552
  },
  {
    "seq": "GUUCCGUUGGCGUAAUGGUAACGCGACUCCCUCCUCAGGAGAAGACUGCGGGUUCGAGUCCCGUACGGAACG [U26A A36C]",
    "yeast fitness": "≤ 0.5"
  },
  {
    "seq": "GUUCCGUUGGUGUAAUGGUAACGCGUCUCCCUCCUAAGGAGAAGACUGCGGGUUCGAGACCCGUACGGAACG [C11U U59A]",
    "yeast fitness": 0.757
  },
  {
    "seq": "GUUCCGUUGGCGUAAUGGUAACGGGUCUCCCUCCUAAGGAGAAGACUGCGGGUUCGAGUCCUGUGCGGAACG [C24G C62U A65G]",
    "yeast fitness": 0.558
  },
  {
    "seq": "GUUCCGUUGGCCUAGUGGUAACGCGUCUCCCUCCUAAGGAGAAGGCUGCCGGUUCGAGUCCCGUACGGCACG [G12C A15G A45G G50C A69C]",
    "yeast fitness": "≤ 0.5"
  },
  {
    "seq": "GUUCCGUUGGCGUAAGGGUAACGCGUUACCCUCCUAAGGAGAAGACUGCGGCUACGAGUCCCGUAUGGAACG [U16G C27U U28A G52C U54A C66U]",
    "yeast fitness": "≤ 0.5"
  },
  {
    "seq": "GUUCUCUUGGCGUAAUGGUAACGCGUCUCCCUCCUAAGAAGAAGUGUGCGGGUUCGAGUCCCGUACGGAACG [C5U G6C G39A A45U C46G]",
    "yeast fitness": 0.626
  },
  {
    "seq": "GUUCCGUUGGCGUAAUGGUAACGCGUCUCCCUCCUAAGGUGAAGACUGCGGGUCCGAGUACCGUACGGAACG [A40U U54C C60A]",
    "yeast fitness": "≤ 0.5"
  },
  {
    "seq": "GUUCCGUUGGCGUAAUGGUAACGCGUCUCCCUCCUACGGAGAAGACUGCGGGUUCGAGUGCCGUACGGAACG [A37C C60G]",
    "yeast fitness": 0.562
  },
  {
    "seq": "GUUGCGUUGGCGUAAUGGUAACGCGUCUCCCUCCUAAAGAGAAGACUGCGGGUUCGAGUCCCGUACAGAACG [C4G G38A G67A]",
    "yeast fitness": "≤ 0.5"
  },
  {
    "seq": "GUUCCGUUGGCGUAUUGGUGACGCGUCUCCCUCCUACGGAGAAGACUGCGGGUUCGAGUCCCGUACGGAACG [A15U A20G A37C]",
    "yeast fitness": "≤ 0.5"
  },
  {
    "seq": "GUUCAGUUGGCGUAAUGGUAACGCGUCUCCCUCCUAAGGAGGAGACUGCGGGUUCGAGUCCCCUACGGAACG [C5A A42G G63C]",
    "yeast fitness": 0.59
  },
  {
    "seq": "GUUCCGUUGGCAUAAUGGUAACGCGUCUCCCUCCUGAGGAGAAGACGGCGGGUUCGAGUCCCAUUCGGAACG [G12A A36G U47G G63A A65U]",
    "yeast fitness": "≤ 0.5"
  },
  {
    "seq": "GUUCCGUUGGAGUAAUGGUAACGCGUCUCCCUCCUAAGGAGAAGACUGCGGGCUCGAGUCCCGUACGGAACG [C11A U53C]",
    "yeast fitness": 0.556
  },
  {
    "seq": "GUUCCGAUGGCGUAAUGGUGACGCGUCUCCUUCCUAAGGAGAAGACUGCGGGUUCGCGUCCCGUACCGAACG [U7A A20G C31U A57C G67C]",
    "yeast fitness": "≤ 0.5"
  },
  {
    "seq": "GUUCCGUUGGCGUAAUGGUGACGUGUCUCCCUCCUAAGGAGAAGACUGCGGGUUCAAGUCCCGUAGGGAACG [A20G C24U G56A C66G]",
    "yeast fitness": "≤ 0.5"
  },
  {
    "seq": "GUUCCGUUGGCGUAUUGGUAACGCGUCUCCCUCCUAAGGAGAAAACUGCGGGUUCGAAUCCCGUACGCAACG [A15U G44A G58A G68C]",
    "yeast fitness": "≤ 0.5"
  },
  {
    "seq": "GUUCAGUUGGCGUAAUGGUAACGCGUCUCCCUCCUAAGGAGAAGACUGCGGGUUCGAGUCCCGUACGGUACG [C5A A69U]",
    "yeast fitness": 0.917
  },
  {
    "seq": "GUUCCGUUGGCGUAAUGGUAACGCGUCGCCCUCCUAACGGGAAGACUGCGGGUUCGAGUCCCGUACGGAACG [U28G G38C A40G]",
    "yeast fitness": 0.546
  },
  {
    "seq": "GUUCCGUUGGCGUGAUGGUAACGCGUCUCCCUCCUAAGGAGAAGACUGCGGGUUCGAGUCCCGUACGGAACG [A14G]",
    "yeast fitness": 0.796
  },
  {
    "seq": "GUUCCGUUGGCGUAAUGGUAACGCGUCUCCCUCCUAAGGAGAUGACUGCGGGUUCCAGUCACGUACGGAACG [A43U G56C C61A]",
    "yeast fitness": "≤ 0.5"
  },
  {
    "seq": "GUUCCGUUGGUGUAAUGGUAACGCGUCUCCUUCCUAAGGAGAAGAGAGCGGGUUCGAGUCCCGUCCGGAACG [C11U C31U C46G U47A A65C]",
    "yeast fitness": "≤ 0.5"
  },
  {
    "seq": "GUUCUGUUGGCGUAAUGGUAACGCGUCUCCCUCCUAAGGAGAAGACUGCGGGUUCGAGUCACGUACGGAACG [C5U C61A]",
    "yeast fitness": 0.612
  },
  {
    "seq": "GUUUCGUUGGCGUAAUGGUAACGCGUCUCGCUCCUUAGGAGAAGACUGCGGGUUUGAGUCCCGUACGGAACG [C4U C30G A36U C55U]",
    "yeast fitness": "≤ 0.5"
  },
  {
    "seq": "GUUCCGUUGGCGUAAUGGUAACGCGUGUCCCUCCUAAGGAGAAGACUGCGGGUUCGAGUCCCGUACGGUACG [C27G A69U]",
    "yeast fitness": 0.738
  },
  {
    "seq": "GUUCCGUUGGCGUAAUGGUAACGCGUCUCCGUCGUAAGGUGAAGACUGCGGGUUCGAGUCCCGUACGGAACG [C31G C34G A40U]",
    "yeast fitness": "≤ 0.5"
  },
  {
    "seq": "GUUACGUUGGCGUAGUGGUAACGCGUCUCCGUCCUAAGGAGAAGACUGCAGGUUCGAGUCCCGUACGGAACG [C4A A15G C31G G50A]",
    "yeast fitness": "≤ 0.5"
  },
  {
    "seq": "GGUCCGUUGGCGUAAUGGUCACGCGUCUCCCUCCUAAGGAGAAGACUCCGGGUUCGAGUCCCGUACGGAACG [U2G A20C G48C]",
    "yeast fitness": "≤ 0.5"
  },
  {
    "seq": "GUUCCGUUGGCGUAAUGGUAACGCGUCUCCCUCCUAAGGACAAGACUGCGGGUUCGAGUCCCCUUCGGAACG [G41C G63C A65U]",
    "yeast fitness": "≤ 0.5"
  },
  {
    "seq": "GUUCCGUUGGCGUAAUGGUAACGCGUCUCCCACCUAAGGAGAAGACUGCGGGUUCGACUCCCGUAAGGAACG [U32A G58C C66A]",
    "yeast fitness": "≤ 0.5"
  },
  {
    "seq": "GUUCUGCUGGCGUAAUGGUAACGCGUCUCCAUCCUAAGAAGAAGACUGCGGGUUCGAGUCCCGUACGGAACG [C5U U7C C31A G39A]",
    "yeast fitness": "≤ 0.5"
  },
  {
    "seq": "GUUCCGUUGGGGUAAUGGUAACGUGUCUCCCUCCUAAGGAGAAGCCUGCGGGUUUGAGUCCCGUACGGAACG [C11G C24U A45C C55U]",
    "yeast fitness": "≤ 0.5"
  },
  {
    "seq": "GUUCCGUUGGUGUAAUGGUAACGCGUCUCCCCCCUAAGGAGAAGCCUGCGGGUUCGAGUCCCGUACGGAACG [C11U U32C A45C]",
    "yeast fitness": 0.885
  },
  {
    "seq": "GUUCCGUUGGCGUAAUGCUAACGCGUCUCCCUCCUAAGGAGAAAACUGCGGGUUCGAGUCCCGUACGGAACG [G18C G44A]",
    "yeast fitness": 0.604
  },
  {
    "seq": "GUUCGGUUGGCGGAAUGGUAACGCGUGUCACUCCUAAGGAGAAGACUGCGGGUUCGAGUCCCGUACGGAACG [C5G U13G C27G C30A]",
    "yeast fitness": "≤ 0.5"
  },
  {
    "seq": "GUUACGUUGGCGUUAUGGUAACGCGUCUCCCUCGUAAGGAGAAGACUGCGGGUUCGAGUCCCGUUCGGAACG [C4A A14U C34G A65U]",
    "yeast fitness": "≤ 0.5"
  },
  {
    "seq": "GUUCCGUUGGCGUAAUGGUAACGCGUCUCCCUCCUAAGGAGAAGACUGCGAGUUCCAGUCCCGUACGGAACG [G51A G56C]",
    "yeast fitness": 0.597
  },
  {
    "seq": "GUUCGGUUGGCGUAAUGGUAACGCGUCUGCCUCCUAAGGAGACGACUGCGGAUUCGAGUCCCGUACAGAACG [C5G C29G A43C G52A G67A]",
    "yeast fitness": "≤ 0.5"
  },
  {
    "seq": "GUUCCGUUGGCGUAUUGGUAACGCGUCACCCUCCUAAGGAGAAGAAUGCGGGUUCGAGUCCCGUACGGAACG [A15U U28A C46A]",
    "yeast fitness": 0.507
  }
]
